assay: Feeding trial in rumen-fistulated dairy cows: ZEN and ZEN metabolites in feces; assay type: in vivo, Holstein Friesian cows; settings: feces, ZEN+ZenA treatment, 10 h
VALUE KIND: Percentage of concentration relative to the sum of ZEN and ZEN metabolite concentrations

1. C[C@H](O)CCCC(=O)CCC/C=C/c1cc(O)cc(O)c1C(=O)O [HZEN, hydrolyzed zearalenone] :: 31.9%
2. C[C@H]1CCC[C@H](O)CCC/C=C/c2cc(O)cc(O)c2C(=O)O1 :: 9.0%
3. C[C@H](O)CCCC(=O)CCC/C=C/c1cc(O)cc(O)c1 [DHZEN, decarboxylated hydrolyzed zearalenone] :: 0.0%
4. C[C@H]1CCC[C@@H](O)CCC/C=C/c2cc(O)cc(O)c2C(=O)O1 :: 59.1%
5. C[C@H]1CCCC(=O)CCC/C=C/c2cc(O)cc(O)c2C(=O)O1 :: 0.0 (traces) %

* * *

assay: Feeding trial in rumen-fistulated dairy cows: ZEN and ZEN metabolites in rumen fluid from reticulum, dorsal mat layer and ventral sac; format: in vivo, Holstein Friesian cows; conditions: female, Holstein Friesian, bovine, in vivo, po, 5 mg, ventral sac, ZEN treatment; read-out: Time of peak concentration post-administration (converted)
VALUE KIND: Tmax (h)

1. C[C@H]1CCCC(=O)CCC/C=C/c2cc(O)cc(O)c2C(=O)O1 :: 1

* * *

Assay: Feeding trial in rumen-fistulated dairy cows: ZEN and ZEN metabolites in rumen fluid from reticulum, dorsal mat layer and ventral sac
Assay type: in vivo, Holstein Friesian cows
Details: reticulorumen, ZEN treatment, 1 h
Method: Ruminal metabolism of ZEN with and without supplementation of ZenA was investigated in four rumen-fistulated Holstein Friesian cows (sex: female; age at start: 5.9 ± 1.0 years; body weight at start: 863 ± 65 kg; physiological stage: non-lactating; general health: good, non-gestating; identification procedure: ear tag 4-digit code). […] In our trial setup, each animal was considered an experimental unit (n = 4). […] Animals were treated and assessed in the same random order at each experimental time point. […]
Examples of molecules with documented Percentage of concentration relative to the sum of ZEN and ZEN metabolite concentrations follow.
VALUE KIND: Percentage of concentration relative to the sum of ZEN and ZEN metabolite concentrations (%)

1) C[C@H](O)CCCC(=O)CCC/C=C/c1cc(O)cc(O)c1C(=O)O [HZEN, hydrolyzed zearalenone] :: 0.0
2) C[C@H]1CCC[C@@H](O)CCC/C=C/c2cc(O)cc(O)c2C(=O)O1 :: 7.6
3) C[C@H]1CCCC(=O)CCC/C=C/c2cc(O)cc(O)c2C(=O)O1 :: 84.8
4) C[C@H](O)CCCC(=O)CCC/C=C/c1cc(O)cc(O)c1 [DHZEN, decarboxylated hydrolyzed zearalenone] :: 0.0
5) C[C@H]1CCC[C@H](O)CCC/C=C/c2cc(O)cc(O)c2C(=O)O1 :: 7.6

* * *

assay: Feeding trial in rumen-fistulated dairy cows: ZEN and ZEN metabolites in rumen fluid from reticulum, dorsal mat layer and ventral sac; assay type: in vivo, Holstein Friesian cows; details: reticulorumen, ZEN+ZenA treatment, 7 h
VALUE KIND: Percentage of concentration relative to the sum of ZEN and ZEN metabolite concentrations (%)

1. C[C@H](O)CCCC(=O)CCC/C=C/c1cc(O)cc(O)c1C(=O)O [HZEN, hydrolyzed zearalenone] :: 100.0
2. C[C@H]1CCC[C@H](O)CCC/C=C/c2cc(O)cc(O)c2C(=O)O1 [α-ZEL, α-zearalenol] :: 0.0
3. C[C@H]1CCC[C@@H](O)CCC/C=C/c2cc(O)cc(O)c2C(=O)O1 [β-ZEL, β-zearalenol] :: 0.0

* * *

experiment: Feeding trial in rumen-fistulated dairy cows: ZEN and ZEN metabolites in rumen fluid from reticulum, dorsal mat layer and ventral sac; assay type: in vivo, Holstein Friesian cows; conditions: reticulorumen, ZEN treatment, 7 h
Each record here notes measured Percentage of concentration relative to the sum of ZEN and ZEN metabolite concentrations.
VALUE KIND: Percentage of concentration relative to the sum of ZEN and ZEN metabolite concentrations (%)

1. C[C@H]1CCC[C@H](O)CCC/C=C/c2cc(O)cc(O)c2C(=O)O1 :: 21.3
2. C[C@H](O)CCCC(=O)CCC/C=C/c1cc(O)cc(O)c1 [DHZEN, decarboxylated hydrolyzed zearalenone] :: 0.0
3. C[C@H]1CCCC(=O)CCC/C=C/c2cc(O)cc(O)c2C(=O)O1 :: 78.7
4. C[C@H](O)CCCC(=O)CCC/C=C/c1cc(O)cc(O)c1C(=O)O [HZEN, hydrolyzed zearalenone] :: 0.0

* * *

experiment: Feeding trial in rumen-fistulated dairy cows: ZEN and ZEN metabolites in rumen fluid from reticulum, dorsal mat layer and ventral sac; type: in vivo, Holstein Friesian cows; settings: reticulorumen, ZEN+ZenA treatment, 4 h
Reported Percentage of concentration relative to the sum of ZEN and ZEN metabolite concentrations is given for each of the following compounds.
VALUE KIND: Percentage of concentration relative to the sum of ZEN and ZEN metabolite concentrations (%)

1) C[C@H]1CCC[C@@H](O)CCC/C=C/c2cc(O)cc(O)c2C(=O)O1 :: 0.0
2) C[C@H]1CCC[C@H](O)CCC/C=C/c2cc(O)cc(O)c2C(=O)O1 :: 0.0
3) C[C@H](O)CCCC(=O)CCC/C=C/c1cc(O)cc(O)c1C(=O)O [HZEN, hydrolyzed zearalenone] :: 100.0

* * *

test: Feeding trial in rumen-fistulated dairy cows: ZEN and ZEN metabolites in rumen fluid from reticulum, dorsal mat layer and ventral sac; type: in vivo, Holstein Friesian cows; settings: female, Holstein Friesian, bovine, in vivo, po, 5 mg, reticulum, ZEN treatment (5 mg ZEN oral); read-out: Time of peak concentration post-administration (converted)
VALUE KIND: Tmax (min)

1. C[C@H]1CCCC(=O)CCC/C=C/c2cc(O)cc(O)c2C(=O)O1 [ZEN, zearalenone] :: 15

* * *

assay: Feeding trial in rumen-fistulated dairy cows: ZEN and ZEN metabolites in rumen fluid from reticulum, dorsal mat layer and ventral sac; assay type: in vivo, Holstein Friesian cows; conditions: reticulorumen, ZEN+ZenA treatment, 15 min
Measured Percentage of concentration relative to the sum of ZEN and ZEN metabolite concentrations of individual entries
VALUE KIND: Percentage of concentration relative to the sum of ZEN and ZEN metabolite concentrations

1) C[C@H](O)CCCC(=O)CCC/C=C/c1cc(O)cc(O)c1 [DHZEN, decarboxylated hydrolyzed zearalenone] :: 0.0%
2) C[C@H](O)CCCC(=O)CCC/C=C/c1cc(O)cc(O)c1C(=O)O [HZEN, hydrolyzed zearalenone] :: 94.1%
3) C[C@H]1CCCC(=O)CCC/C=C/c2cc(O)cc(O)c2C(=O)O1 :: 5.9%
4) C[C@H]1CCC[C@H](O)CCC/C=C/c2cc(O)cc(O)c2C(=O)O1 :: 0.0 (traces) %
5) C[C@H]1CCC[C@@H](O)CCC/C=C/c2cc(O)cc(O)c2C(=O)O1 :: 0.0%

* * *

Parameter: Percentage of concentration relative to the sum of ZEN and ZEN metabolite concentrations. Scope: all listed entries.
experiment: Feeding trial in rumen-fistulated dairy cows: ZEN and ZEN metabolites in rumen fluid from reticulum, dorsal mat layer and ventral sac; format: in vivo, Holstein Friesian cows; conditions: reticulorumen, ZEN treatment, 4 h
VALUE KIND: Percentage of concentration relative to the sum of ZEN and ZEN metabolite concentrations (%)

1) C[C@H]1CCCC(=O)CCC/C=C/c2cc(O)cc(O)c2C(=O)O1 :: 84.1
2) C[C@H]1CCC[C@H](O)CCC/C=C/c2cc(O)cc(O)c2C(=O)O1 :: 15.9
3) C[C@H](O)CCCC(=O)CCC/C=C/c1cc(O)cc(O)c1C(=O)O [HZEN, hydrolyzed zearalenone] :: 0.0
4) C[C@H](O)CCCC(=O)CCC/C=C/c1cc(O)cc(O)c1 [DHZEN, decarboxylated hydrolyzed zearalenone] :: 0.0

* * *

Listing: Percentage of concentration relative to the sum of ZEN and ZEN metabolite concentrations of selected compounds
assay: Feeding trial in rumen-fistulated dairy cows: ZEN and ZEN metabolites in feces; assay type: in vivo, Holstein Friesian cows; conditions: feces, ZEN treatment, 10 h
VALUE KIND: Percentage of concentration relative to the sum of ZEN and ZEN metabolite concentrations (%)

1) C[C@H](O)CCCC(=O)CCC/C=C/c1cc(O)cc(O)c1 [DHZEN, decarboxylated hydrolyzed zearalenone] :: 0.0
2) C[C@H]1CCCC(=O)CCC/C=C/c2cc(O)cc(O)c2C(=O)O1 [ZEN, zearalenone] :: 11.0
3) C[C@H]1CCC[C@H](O)CCC/C=C/c2cc(O)cc(O)c2C(=O)O1 [α-ZEL, α-zearalenol] :: 10.9
4) C[C@H](O)CCCC(=O)CCC/C=C/c1cc(O)cc(O)c1C(=O)O [HZEN, hydrolyzed zearalenone] :: 0.0
5) C[C@H]1CCC[C@@H](O)CCC/C=C/c2cc(O)cc(O)c2C(=O)O1 [β-ZEL, β-zearalenol] :: 78.1
